# method-notes: Toxicity liver stage against HepG2, at 10uM
# Type: cell-based
# Design: test concentration 10 uM, cell line HepG2-A16-CD81EGFP
# experimental-conditions: human, HepG2-A16-CD81EGFP cells; read-out: INHIBITION
The compounds listed here are annotated with their cytotoxicity at 10 µM.
readout-name: cytotoxicity at 10 µM (%)

• Cc1nnc(CN2CCCC(c3noc(C4CC4)n3)C2)o1 (stereo not drawn) = -16
• O=C(c1ccc(Cn2ccccc2=O)o1)N1CCC2(CC1)OCCO2 = -12.8
• O=C1[C@H]2CN(S(=O)(=O)C3CC3)C[C@H]2CN1Cc1cccnc1 = -0.0545
• CCN1C(=O)C2(CCCCC2)NC1c1cc(C#N)n(C)c1C (stereo not drawn) = 4.59
• CC(C)CCN1Cc2c(C(=O)N3CCCC3)nn(C)c2C1 = -0.173
• CCN(Cc1ccncc1)C1CCCN(Cc2ccc(F)cc2OC)C1 (stereo not drawn) = -3.73
• O=C(c1ccsc1)N1CCO[C@@H]2CN(Cc3cccs3)C[C@@H]2C1 = -133
• CN(C)C(=O)COC[C@@]12CCC[C@@H]1CN(C1CCCC1)C2 = -13.2
• O=C1CCSCC(C(=O)N2CCOCC2)N1 (stereo not drawn) = -11.3
• O=C(CNC(Cn1cccn1)c1ccccc1)Nc1cnccn1 (stereo not drawn) = 7.34
• CCc1nc(-c2ccc(NC(=O)N3CCC4(CC3)OCCO4)cc2)no1 = 7.27
• CC(CNCc1ccncc1)Oc1ccccn1 (stereo not drawn) = -1.71
• COCCN1CC[C@@H]2OC(COCC(=O)N3CCCC3)CC[C@@H]21 (stereo partly drawn) = -3.29
• CCOc1ccc(CN(C)C2CCN(c3cc(C)nn3C)C2=O)cc1 (stereo not drawn) = 1.66
• Cc1nc(CN2C[C@@H]3CN(C(=O)c4ccoc4C)C[C@@H]3C2)cs1 = -144
• CN1CCN(Cc2nnc(C3CCN(C4CCCCC4)CC3)n2C)CC1 = 3.18
• CC(C)COc1cncc(N2CCCC(CC(N)=O)C2)n1 (stereo not drawn) = -1.67
• Cc1ccnc(C2CCN(c3ccnc(C)n3)C2)n1 (stereo not drawn) = -0.485
• CCn1c(C)cc(C(=O)N2CCC(NC(=O)c3ccc(C)o3)CC2)c1C = -7.45
• Cc1nccn1CCN(C)c1nc(-c2ccc(Cl)cc2)nc2c1CNC2 = -29.5
• CS(=O)(=O)CCC(=O)NC1(c2cccc(Br)c2)CC1 = -11.1
• COc1cccc(CC(=O)N2CCN(c3cccc(C)c3)C(C)C2)c1 (stereo not drawn) = 8.63
• CC(C)C(=O)NC1CCCc2nc(N3CCOCC3)ncc21 (stereo not drawn) = 10.2

----------
# method-notes: Toxicity liver stage against HepG2, at 10uM
# Assay type: cell-based
# Parameters: test concentration 10 uM, cell line HepG2-A16-CD81EGFP
# experimental-conditions: human, HepG2-A16-CD81EGFP cells; read-out: INHIBITION
readout-name: cytotoxicity at 10 µM (%)

* COC(=O)c1ccc(C2SCC(=O)Nc3c2cnn3C(C)(C)C)cc1 (configuration not stated) | 2.06
* Cc1sc2c(C3CCNCC3)nc(Nc3cccc(F)c3)n2c1C | -0.775
* CSCC[C@H]1CN2CCC[C@H]2CN1Cc1coc2ccc(C)cc2c1=O | -1.04
* Cn1c(N2CCOCC2)nc2cc(C(=O)NCC(F)(F)F)ccc21 | 1.85
* Cc1cc(C)cc(OCCN(C)C2CCOC2=O)c1 (configuration not stated) | -143
* CC(NC(=O)c1cccnc1N(C)C)c1ccccc1Cl (configuration not stated) | -4.97
* Cn1cc(C(=O)NCC2CCN(C(=O)NCC(F)(F)F)CC2)cn1 | -3.68
* O=S(=O)(NC1=NCN(CCc2cccs2)CN1)c1ccccc1 | -3.32
* CN(CCCO)C(=O)c1cc(COc2ccc3c(c2)CCCC3)on1 | -148
* Cc1cc(C(F)(F)F)nc(C2(C)CCCN2CC(N)=O)n1 (configuration not stated) | 6.62
* Cn1ccnc1-c1cn(Cc2cn3c(n2)SCC3)nn1 | -0.773
* CCC(O)CN1CCN(C(=O)Cc2ccc(OC)cc2OC)CC1 (configuration not stated) | -23.8
